- run description: Primary qHTS to identify inhibitors of SARS-CoV-2 cell entry (AID 1645846); also: nearly all actives have a fitted effect of over 45% in size
- measurement context: SARS-CoV-2 pseudovirus cell entry assay, luminescence; at 57.1 µM (top of the series) unless noted
Inconclusive results are not listed.
Field: activity change, negative = inhibition. Provide a value for each of the compounds that follow.
Give bare numbers, in %.

Record excerpt, results attached:
{"compound": "CC(C(=O)O)c1ccc(C2CCCCC2)c2ccccc12 (centres undefined)", "readout number": -4.82}
{"compound": "CCC(O)c1ccccc1 (centres undefined)", "readout number": -0.957}
{"compound": "CCO[C@@H]1OC(=O)C[C@@H]1NC(=O)[C@@H]1CCCN1C(=O)[C@@H](NC(=O)c1ccc(N)c(Cl)c1)C(C)(C)C", "readout number": -14.2}
{"compound": "C[C@@H]1CC2C3C[C@H](F)C4=CC(=O)C=C[C@]4(C)[C@@]3(F)[C@@H](O)C[C@]2(C)[C@@]1(OC(=O)c1ccco1)C(=O)SCF (some centres undefined)", "readout number": 3.79}
{"compound": "CC[C@@]1(O)C(=O)OCc2c1cc1n(c2=O)Cc2c-1nc1cc(F)c(C)c3c1c2[C@@H](N)CC3", "readout number": -94.1}
{"compound": "N#C/C(=C(/N)Sc1ccc(N)cc1)c1ccccc1C(F)(F)F", "readout number": -16.8}

State recorded activity change, negative = inhibition for all listed compounds.
1. Cc1onc(-c2ccc(F)cc2)c1COc1ccc(C(=O)N2CCS(=O)(=O)CC2)cn1
2. CCCCCCCCCC(=O)OCCN1CCN(CC/C=C2/c3ccccc3Sc3ccc(Cl)cc32)CC1
3. CC1Cc2ccccc2N1C(=O)Cc1nc(N2CCOCC2)cc(=O)[nH]1 (centres undefined)

1: -25.8; 2: -15; 3: -26.2

* * *

- run description: Confirmatory qHTS to identify inhibitors of SARS-CoV-2 cell entry (AID 1645844); also: nearly all actives have a fitted effect of over 45% in size
- measurement context: SARS-CoV-2 pseudotyped particle cell entry, luciferase; series mostly up to 57.2 µM
Records with an inconclusive call do not appear. Active and inactive are the calls of the source. Calls follow the shape of the full dose curve.
Bench note: report the call from active, inactive

# example entries with known answers
{"molecule": "Nc1nc(-c2nn(Cc3ccccc3F)c3ncccc23)ncc1C1CC1", "assigned class": "active"}
{"molecule": "COc1ncc(Nc2ncc(C(C)N3CCN(S(C)(=O)=O)CC3)cc2-c2nc(C)nc(N)n2)cc1F (stereo not drawn)", "assigned class": "active"}
{"molecule": "CCOC(=O)N[C@@H]1CC[C@@H]2[C@@H](C1)C[C@H]1C(=O)O[C@H](C)C1[C@H]2/C=C/c1ccc(-c2cccc(F)c2)cn1 (stereo partly drawn)", "assigned class": "active"}
{"molecule": "C=C1C[C@H]2C=Nc3cc(OCCCOc4cc5c(cc4OC)C(=O)N4CC(=C)C[C@H]4C=N5)c(OC)cc3C(=O)N2C1", "assigned class": "active"}
{"molecule": "C=CC(=O)N[C@H]1CN(c2nc(Nc3cn(C)nc3OC)c3ncn(C)c3n2)C[C@@H]1F", "assigned class": "inactive"}
{"molecule": "CCNCCS(=O)(=O)NC[C@@]1(c2ccccc2)SC(NC(=O)C(C)(C)C)=NN1C(=O)C(C)(C)C", "assigned class": "active"}
{"molecule": "COCCNCc1ccc(-c2cc3nccc(Oc4ccc(NC(=S)NC(=O)Cc5ccc(F)cc5)cc4F)c3s2)nc1", "assigned class": "active"}
{"molecule": "CC(C)n1c(=O)cc(N[C@@H](C)c2ccccc2)[nH]c1=O", "assigned class": "inactive"}

Lab log entry: `CCCCCCCCCCCCCCCCCCCCCC(=O)Nc1ccn([C@@H]2O[C@H](CO)[C@@H](O)[C@@H]2O)c(=O)n1` — outcome as called in the assay?
inactive

Lab log entry: `C=C[C@]1(C)C[C@@H](OC(=O)CSCCN(CC)CC)[C@]2(C)[C@H](C)CC[C@]3(CCC(=O)[C@H]32)[C@@H](C)[C@@H]1O` — outcome as called in the assay?
active

Lab log entry: C=C1C/C(=C\C=C2/CCC[C@]3(C)[C@@H]([C@H](C)/C=C/C(C)C(C)C)CC[C@@H]23)[C@@H](O)C[C@@H]1O (stereo partly drawn) — outcome as called in the assay?
active

Lab log entry: `C[C@@]12C(=O)OC(=O)[C@]1(C)[C@H]1CC[C@@H]2O1` — outcome as called in the assay?
active

Lab log entry: `O=C(Nc1cc(Oc2cc(F)c(NC(=O)C3(C(=O)Nc4ccc(F)cc4)CC3)cc2F)ccn1)C1CC1` — outcome as called in the assay?
active
